- Test system: Mus musculus
- test-name: Acute toxicity in C57BL/6J mouse assessed as lesions in lungs at 1 to 10 mg/kg, sc after 9 days
- Assay type: organism-based
- Parameters: dose 1-10 mg/kg, route subcutaneous
- condition-notes: in vivo, 216 h
measured-metric: Activity

CN(CCCNC(=O)c1cccc(C(=O)O)c1)CCCNC(=O)c1cc(NC(=O)c2cc(NC(=O)c3cc(NC(=O)c4nc(NC(=O)C[C@@H](N)CNC(=O)c5cc(NC(=O)c6cc(NC(=O)c7cc(NC(=O)c8nccn8C)cn7C)cn6C)cn5C)cn4C)cn3C)cn2C)cn1C : Non-toxic
CN(CCCNC(=O)c1cccc(C(=O)O)c1)CCCNC(=O)c1cc(NC(=O)c2cc(NC(=O)c3cc(NC(=O)c4nc(NC(=O)[C@H](N)CCNC(=O)c5cc(NC(=O)c6cc(NC(=O)c7cc(NC(=O)c8nccn8C)cn7C)cn6C)cn5C)cn4C)cn3C)cn2C)cn1C : Non-toxic
CC(=O)N[C@H](CCNC(=O)c1cc(NC(=O)c2cc(NC(=O)c3cc(NC(=O)c4nccn4C)cn3C)cn2C)cn1C)C(=O)Nc1cn(C)c(C(=O)Nc2cc(C(=O)Nc3cc(C(=O)Nc4cc(C(=O)NCCCN(C)CCCNC(=O)c5cccc(C(=O)O)c5)n(C)c4)n(C)c3)n(C)c2)n1 : Non-toxic
CC(=O)N[C@@H](CNC(=O)c1cc(NC(=O)c2cc(NC(=O)c3cc(NC(=O)c4nccn4C)cn3C)cn2C)cn1C)CC(=O)Nc1cn(C)c(C(=O)Nc2cc(C(=O)Nc3cc(C(=O)Nc4cc(C(=O)NCCCN(C)CCCNC(=O)c5cccc(C(=O)O)c5)n(C)c4)n(C)c3)n(C)c2)n1 : Non-toxic
